Kd overview
# measured target: T1, recombinant human PD-1 Fc chimera (human, UniProt Q15116 25-167)
# T1 construct: Bought protein; also called human PD-1-huFc; huPD-1-Fc; not shown: human Fc
# T1 sequence (Q15116 25-167 limits assumed, change not shown): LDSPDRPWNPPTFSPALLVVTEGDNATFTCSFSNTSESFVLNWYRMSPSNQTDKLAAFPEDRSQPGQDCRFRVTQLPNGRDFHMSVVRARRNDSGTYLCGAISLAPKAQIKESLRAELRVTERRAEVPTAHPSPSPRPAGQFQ
# method notes: SPR Biacore T200, PD-1-huFc amine-coupled, single cycle kinetics
Respond numerically; units are nM and should not be typed.

binder	meas value
Humabody® 1.1 (VHH, human VH single domain antibody; also called VH single domain antibody 1.1; clone 1.1) VHH: QVQLVESGGGLVKPGGSLRLSCAASGFTFSDYTMTWMRQAPGKGLEWVSYISTGGTIKYYTDSVKGRFTISRDNAKNSLYLQMNSLRADDTAVYYCAREAPLRLGESPHDAFDIWGQGTMVTVSS	0.676

Input: # lookup: Kd of Humabody® 1.43 (VHH, human VH single domain antibody) VHH: QVQLVESGGGLVKPGGSLRLSCAASGFTFSDSSMTWMRQAPGKGLEWVSYISSGGGVIFYADSVKGRFTISRDNAKNSLYLQMNSLRADDTAVYYCAREAPLRLGESPHDAFDIWGQGTMVTVSS
Output: 0.0681

Input: Please give the measured Kd for this binder: Humabody® 1.54 (VHH, human VH single domain antibody) VHH: QVQLVESGGGLVKPGGSLRLSCAASGFTFSDDSMTWMRQAPGKGLEWVSYISSGGGVIFYADSVKGRFTISRDNAKNSLYLQMNSLRADDTAVYYCAREAPLRLGESPHDAFDIWGQGTMVTVSS
Output: 0.0856

Input: Requested field: Kd. Item: Humabody® 1.51 (VHH, human VH single domain antibody) VHH: QVQLVESGGGLVKPGGSLRLSCAASGFTFSDSSMTWMRQAPGKGLEWVSYISSGGAVKFYTDSVKGRFTISRDNAKNSLYLQMNSLRADDTAVYYCAREAPLRLGESPHDAFDIWGQGTMVTVSS
Output: 0.317

Input: May I ask what Kd has been recorded for Humabody® 1.42 (VHH, human VH single domain antibody) VHH: QVQLVESGGGLVKPGGSLRLSCAASGFTFSDNSMTWMRQAPGKGLEWVSYISSGGGVKFYADSVKGRFTISRDNAKNSLYLQMNSLRADDTAVYYCAREAPLRLGESPHDAFDIWGQGTMVTVSS ?
Output: 0.0505

Input: Kd lookup needed for Humabody® 1.92 (VHH, human VH single domain antibody) VHH: EVQLVESGGGLVKPGGSLRLSCAASGFTFSDESMTWMRQAPGKGLEWVSYISSGGGVKFYADSVKGRFTISRDNAKNSLYLQMNSLRAEDTAVYYCAREAPLRLGESPHDAFDISGQGTMVTVSS , thanks.
Output: 0.059

Input: Dear colleague, I am looking for the recorded Kd of the following binder: Humabody® 1.50 (VHH, human VH single domain antibody) VHH: QVQLVESGGGLVKPGGSLRLSCAASGFTFSDNSMTWMRQAPGKGLEWVSYISSGGTIKFYADSVKGRFTISRDNAKNSLYLQMNSLRADDTAVYYCAREAPLRLGESPHDAFDIWGQGTMVTVSS
Output: 0.0581

Input: Consider the binder shown here: Humabody® 1.48 (VHH, human VH single domain antibody) VHH: QVQLVESGGGLVKPGGSLRLSCAASGFTFSDSSMTWMRQAPGKGLEWVSYISSGGGVKFYADSVKGRFTISRDNAKNSLYLQMNSLRADDTAVYYCAREAPLRLGESPHDAFDIWGQGTMVTVSS What is its recorded Kd?
Output: 0.106
